- measurement_target: T1, human CD8A-Fc (in house) (human, UniProt P01732 22-182, limits assumed)
- T1 construct: captured by goat anti-human Fc on the ProteOn chip; also called hCD8A-Fc; recombinant human CD8 alpha; not shown: linker/tag and Fc of human IgG1
- T1 sequence (P01732 22-182 limits assumed): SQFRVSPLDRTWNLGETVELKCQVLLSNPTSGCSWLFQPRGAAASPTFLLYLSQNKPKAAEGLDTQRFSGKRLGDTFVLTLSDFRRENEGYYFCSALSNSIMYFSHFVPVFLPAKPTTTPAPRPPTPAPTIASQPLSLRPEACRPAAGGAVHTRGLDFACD
- protocol_details: SPR (ProteOn), captured hCD8A-Fc
measurement_label: koff (s⁻¹)

Reference set (3 entries):
{"binder": "P283GR7P1367_H9 (designed binder, FN3 domain) LPAPKNLVVSRVTEDSARLSWTAPDAAFDSFDIAYPEWPTDGEAIVLTVPGSERSYDLTGLKPGTEYFVVIYGVKGGGRSAPLSAIFTT", "koff / s⁻¹": 0.00147}
{"binder": "P283HR7P1368_G1 (designed binder, FN3 domain) LPAPKNLVVSRVTEDSARLSWTAPDAAFDSFLITYWEIEPEGEAIFLGVPGSERSYDLTGLKPGTEYRVQINGVKGGTISYPLFAGFTT", "koff / s⁻¹": 0.00215}
{"binder": "P283DR9P1364_E5 (designed binder, FN3 domain) LPAPKNLVVSRVTEDSARLSWTAPDAAFDSFWISYPEWPVPGEAIVLTVPGSERSYDLTGLKPGTEYWVIIQGVKGGKLSWPLSAIFTT", "koff / s⁻¹": 0.000825}

A. P283DR9P1364_H11 (designed binder, FN3 domain) LPAPKNLVVSRVTEDSARLSWTAPDAAFDSFDIAYPELPLGGEAIVLTVPGSERSYDLTGLKPGTEYFVIIWGVKGGDRSEPLSAIFTT
B. P283DR9P1364_F8 (designed binder, FN3 domain) LPAPKNLVVSRVTEDSARLSWTAPDAAFDSFAIAYPEWPPGEAIVLTVPGSERSYDLTGLKPGTEYFVIIYGVKGGWTSPPLSAIFTT
Data request: When the recorded koff values are compared, which is smaller: that of A or that of B ? API: response body contains the label of the selected item.
Data returned: A

Origin of the recorded values: patent US20210032312A1
